Form field: activation (one value per entry).
Tested on: Nuclear hormone receptor DAF-12 (Heterodera glycines), GAL4 fusion
Experiment: H. glycines DAF-12 receptor agonists, primary screen, cell-based, luminescence, HEK293, GAL4 fusion, UAS-luciferase (AID 687014);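 also: 0% = DMSO wells and 100% = sodium butyrate wells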
Details: HEK293 GAL4-hgDAF12 UAS-luciferase reporter, agonist luminescence; at 6.8 µM; stronger effect = higher value; normalized to butyrate control
In all, about 370,000 compounds went through this assay and about 6,800 (1.8%) were called active. The sample holds actives, similar compounds and a random draw of the others, so the mix is not that of the screen.
Answer with a number only, understood to be in %.

// worked examples, activation included
molecule	reported-metric	observed-result
O=C(NCc1ccccc1)[C@H]1CCCN1C(=O)[C@H]1CCCN1C(=O)N1CCOCC1	activation	-0.79
c1csc(-c2nnc(COc3ncnc4sccc34)o2)c1	activation	1.72
CC1CCN(C(=S)c2ccc(-c3ccc(Cl)cc3Cl)o2)CC1	activation	-2.32
COc1ccc2c(c1)CN1CN(CCc3ccccc3)S(=O)(=O)CC21 (stereo not drawn)	activation	0.93

Bench note: what activation did `Cc1ccc(Cc2c(-c3ccc(C)cc3)nc3c4ccccc4ccn23)cc1` show?
0.89

Bench note: what activation did `COc1ccc(Nc2nc(-c3ccccc3)cs2)cc1` show?
22.4

Bench note: what activation did `Cc1ccc(-n2ncc3c(=O)n(-c4ccc(C)c(C)c4)c(-c4ccco4)nc32)cc1` show?
3.84

Bench note: what activation did `O=C(COC(=O)c1cnc(Cl)c(Cl)c1)NCc1ccco1` show?
-3.41

Bench note: what activation did `Cc1cc2c(=O)n(CC(=O)NCC(=O)Nc3ccc(C(C)C)cc3)cnc2s1` show?
1.17

Bench note: what activation did CC(C)C[C@H](NC(=O)C1CC(=O)N(c2ccc3c(c2)OCCO3)C1)C(=O)NC1CCCC1 (stereo partly drawn) show?
-2.12

Bench note: what activation did `CCCNC(=O)Nc1ccc2c(c1)C(=O)N(C)[C@H]1CC[C@H](CC(=O)NCC3CCCCC3)O[C@@H]1CO2` show?
2.46

Bench note: what activation did `N#CC1(Nc2ccc3c4c(cccc24)CC3)CCCCC1` show?
-2.54

Bench note: what activation did O=C(C(NS(=O)(=O)c1cccc2nsnc12)c1ccccc1)N1CCN(c2ccccc2)CC1 (stereo not drawn) show?
0.47

Bench note: what activation did `CCN(CC)C(=O)CC[C@H]1CC[C@]2(CCCN(Cc3ccc(Cl)cc3)C2)O1` show?
-2.24

Bench note: what activation did `O=C(COCc1cc(-c2ccc3c(c2)OCO3)on1)N1CCN(c2cccc(Cl)c2)CC1` show?
1.17

Bench note: what activation did `O=C(COC(=O)c1ccco1)Nc1ccc(Cl)cn1` show?
0.37

Bench note: what activation did `O=C(NS(=O)(=O)c1cccs1)[C@H]1O[C@@H](n2ccc(=O)[nH]c2=O)[C@H](O)[C@@H]1O` show?
1.66

Bench note: what activation did `Clc1ccc(Cc2nnc(-c3cccs3)o2)cc1` show?
12.7

Bench note: what activation did O=C(CN1C(=O)C2C3C=CC(C3)C2C1=O)Nc1nc(-c2ccccn2)cs1 (stereo not drawn) show?
0.17

Bench note: what activation did `COC(=O)Cc1nnn2c1[C@H](C)[C@H](c1ccccc1Br)OCC2` show?
-0.72

Bench note: what activation did CC(C)(C)NC(=O)C(c1cccnc1)N(C(=O)c1cnco1)c1ccc(C(C)(C)C)cc1 (stereo not drawn) show?
-4.87

Bench note: what activation did CC(CCN1CCC(C(O)(c2ccccc2)c2ccccc2)CC1)Oc1ccc(Cl)cc1 (stereo not drawn) show?
-0.38

Bench note: what activation did `O=C(Cn1c(N2CCN(C/C=C/c3ccccc3)CC2)nc2ccccc21)c1ccccc1` show?
-0.26

====

Form field: activation (one value per entry).
Test system: Nuclear hormone receptor DAF-12 (Heterodera glycines), GAL4 fusion
Test: H. glycines DAF-12 receptor agonists, primary screen, cell-based, luminescence, HEK293, GAL4 fusion, UAS-luciferase (AID 687014);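 also: 0% = DMSO wells and 100% = sodium butyrate wells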
Details: HEK293 GAL4-hgDAF12 UAS-luciferase reporter, agonist luminescence; at 6.8 µM; stronger effect = higher value; normalized to butyrate control
About 6,800 (1.8%) of roughly 370,000 compounds were called active. The entries come from a sample that favours actives as a whole.

1) O=C(CSCc1ccccc1)N1CCc2ccccc21 17.5% (active)
2) COc1ccc(NC2=CC(=S)NC(C)(C)C2)cc1 1.03% (inactive)
3) O=C(O)c1ccccc1CSc1nc2ccccc2s1 10.6% (active)

Please find the next compound below.
Checklist item: activation tested on Nuclear hormone receptor DAF-12 (Heterodera glycines), GAL4 fusion, entry `CC(C)(C)c1ccc(/C=C/C(=O)Nc2ncccn2)cc1` , value?
16.6% (active)

====

Test system: Nuclear hormone receptor DAF-12 (Heterodera glycines), GAL4 fusion
Test: H. glycines DAF-12 receptor agonists, primary screen, cell-based, luminescence, HEK293, GAL4 fusion, UAS-luciferase (AID 687014);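 also: 0% = DMSO wells and 100% = sodium butyrate wells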
Settings: HEK293 GAL4-hgDAF12 UAS-luciferase reporter, agonist luminescence; at 6.8 µM; normalized to butyrate control
The whole screen tested about 370,000 compounds, of which about 6,800 (1.8%) were called active.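 The calls were made as follows: active = activation above a cutoff set at the mean of all screened compounds plus 3 SD (cut at about 10% in these data); inactive = the rest.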 For the sample, actives were picked, then their nearest neighbours and some compounds at random.
Respond with a class label; see active, inactive

A selection of reference data follows.
compound	label-value
O=C(c1cc(COc2cccc(C(F)(F)F)c2)on1)N1CCSCC1	inactive
CSCCC(NC(=O)c1ccco1)C(=O)NCCc1ccc(F)cc1 (stereo unspecified)	inactive
COc1cccc(NC(=O)CN(C)C(=O)CSC(=S)N2CCCC2)c1	inactive

Hi, do you know how `COc1ccc2nc(SCC(=O)Nc3c(C)cc(C)cc3C)[nH]c2c1` came out in this test?
inactive

Hi, do you know how `CC(C)Cc1cc(C(=O)Nc2cc(Br)ccc2O)no1` came out in this test?
inactive

Hi, do you know how `Cn1c(NCc2cccnc2)nc2cc(-c3ccc(F)cc3)sc2c1=O` came out in this test?
inactive

Hi, do you know how COc1cc(/C=C(\C#N)c2nc3c(s2)CC(C)CC3)ccc1O (stereo unspecified) came out in this test?
active

====

System: Nuclear hormone receptor DAF-12 (Heterodera glycines), GAL4 fusion
Test: H. glycines DAF-12 receptor agonists, primary screen, cell-based, luminescence, HEK293, GAL4 fusion, UAS-luciferase (AID 687014);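 also: 0% = DMSO wells and 100% = sodium butyrate wells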
Conditions: HEK293 GAL4-hgDAF12 UAS-luciferase reporter, agonist luminescence; at 6.8 µM; normalized to butyrate control
In all, about 370,000 compounds went through this assay and about 6,800 (1.8%) were called active.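 Rule for the calls: active = activation above a cutoff set at the mean of all screened compounds plus 3 SD (cut at about 10% in these data); inactive = the rest.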 The entries come from a sample that favours actives as a whole.
Respond with a class label; see true (1) = active, false (0) = inactive

A selection of reference data follows.
1. O=C(NCCc1csc(-c2ccccc2)n1)c1ccccc1F false (0)
2. O=C(NCCOc1ccccc1)c1ccccc1F true (1)
3. O=C(CSc1nnc(COc2ccccc2)n1-c1ccc(Cl)cc1)Nc1ccc2c(c1)OCO2 false (0)

Moving on to another compound below.
Hi, do you know how `O=C(CNC(=O)c1ccccc1F)OCC(=O)c1c[nH]c2ccccc12` came out in this test?
false (0)

====

System: Nuclear hormone receptor DAF-12 (Heterodera glycines), GAL4 fusion
Assay: H. glycines DAF-12 receptor agonists, primary screen, cell-based, luminescence, HEK293, GAL4 fusion, UAS-luciferase (AID 687014);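 also: 0% = DMSO wells and 100% = sodium butyrate wells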
Details: HEK293 GAL4-hgDAF12 UAS-luciferase reporter, agonist luminescence; at 6.8 µM; normalized to butyrate control
Out of some 370,000 compounds screened, about 6,800 (1.8%) were called active.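 How the source made its calls: active means activation above a cutoff set at the mean of all screened compounds plus 3 SD (cut at about 10% in these data); inactive means the rest.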 Many of the other results were omitted from the sample, so actives are more common in it than they were.
Respond with a class label; see active, inactive

Hi, do you know how `C/C(=N\NC(=O)c1ccccc1F)c1ccccn1` came out in this test?
active

====

Form field: activation (one value per entry).
Tested on: Nuclear hormone receptor DAF-12 (Heterodera glycines), GAL4 fusion
Assay: H. glycines DAF-12 receptor agonists, primary screen, cell-based, luminescence, HEK293, GAL4 fusion, UAS-luciferase (AID 687014);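 also: 0% = DMSO wells and 100% = sodium butyrate wells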
Conditions: HEK293 GAL4-hgDAF12 UAS-luciferase reporter, agonist luminescence; at 6.8 µM; stronger effect = higher value; normalized to butyrate control
Hit rate of the full screen: of about 370,000 compounds, about 6,800 (1.8%) were called active. The sample as a whole holds a higher share of actives than the screen did.
Answer with a number only, understood to be in %.

compound	quantity-unit	observed-result
N#Cc1cccc(C(=O)NCC2CCN(C(=O)C(=O)c3cc4ccccc4o3)CC2)c1	%	-0.57
Cc1cccc(CN2CCC(n3nccc3NC(=O)c3ccccc3C)CC2)n1	%	-0.95
O=C(Nc1ccn(Cc2ccccc2)n1)c1cccc(F)c1	%	20

Checklist item: activation tested on Nuclear hormone receptor DAF-12 (Heterodera glycines), GAL4 fusion, entry `COC(=O)c1c(-c2ccc(OC)cc2)c2c(c3c4cc(OC)ccc4n(S(=O)(=O)c4ccc(F)cc4)c13)C(=O)N(C)C2` , value?
-2.44

Checklist item: activation tested on Nuclear hormone receptor DAF-12 (Heterodera glycines), GAL4 fusion, entry `Cc1c(Br)c([N+](=O)[O-])nn1CC(=O)N1CCN(Cc2ccccc2)CC1` , value?
4.33

Checklist item: activation tested on Nuclear hormone receptor DAF-12 (Heterodera glycines), GAL4 fusion, entry `O=C(Nc1ccn(Cc2ccccc2)n1)c1n[nH]c([N+](=O)[O-])c1Cl` , value?
16.8

Checklist item: activation tested on Nuclear hormone receptor DAF-12 (Heterodera glycines), GAL4 fusion, entry `C[C@H](C(=O)N(C)c1ccccc1)[C@@H](O)c1ccc2ccccc2c1` , value?
-1.62
